Target: C-X-C chemokine receptor type 6 (Homo sapiens) (UniProt O00574)
Sequence (O00574 whole entry, looked up): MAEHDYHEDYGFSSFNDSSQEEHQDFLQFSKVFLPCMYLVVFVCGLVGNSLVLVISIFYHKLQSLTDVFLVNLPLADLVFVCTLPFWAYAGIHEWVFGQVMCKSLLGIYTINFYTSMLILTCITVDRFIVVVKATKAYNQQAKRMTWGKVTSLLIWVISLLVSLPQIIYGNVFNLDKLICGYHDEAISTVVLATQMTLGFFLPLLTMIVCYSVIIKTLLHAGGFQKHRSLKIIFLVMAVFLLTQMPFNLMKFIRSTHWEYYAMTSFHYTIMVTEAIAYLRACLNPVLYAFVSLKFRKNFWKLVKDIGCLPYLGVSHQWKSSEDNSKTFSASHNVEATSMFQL
Assay: potency against CXCR6 with APJ panel – cell-based, beta-arrestin, DiscoveRx, uHTS hits, dose response (AID 624129)
Conditions: CXCR6 beta-arrestin (DiscoveRx) antagonist cell assay, CXCR6, run 1, dose range 2
Field 'label' (enum: 1 / 0). Set to 1 when IC50 is strictly under 10 µM; else 0.

> print(dat)
                                    compound  discrete.label
 1  CCOc1cc(Br)c(Br)c(C=Nc2ccc(NC(C)=O)cc2)c1O               1
 2  COc1cc(C2C(C#N)=C(N)Oc3n[nH]c(-c4cccnc4)c32)cc(Br)c1O (stereo not given)               0
 3  CN(c1ccccc1)S(=O)(=O)c1ccc(NC(=O)c2nc(S(C)(=O)=O)ncc2Cl)cc1               1
 4     Cc1ccc(C(=O)NNC(=S)NC(=O)c2ccccc2)cc1               0
 5  O=C(Nc1ccc(Oc2ccccc2)cc1)c1csc([C@@H]2O[C@H](CO)[C@H](O)[C@H](O)[C@H]2O)n1               0
 6  C=C1C(=O)[C@]23C[C@H]1CCC2[C@@]1(C)C(C[C@@H]3O)[C@](C)(C(=O)OC)CC[C@@H]1O (stereo not given in full)               0
 7  CCC(C)c1ccc(O)c(NC(=S)NC(=O)c2cccnc2)c1 (stereo not given)               1
 8  COc1ccc(-c2c(C(=O)c3ccccc3)[nH]c(N)c2C(=O)c2ccc(Br)cc2)cc1OC               0
 9               Cc1cccc(CSc2cccc3cccnc23)c1               1
10  Nc1cccc2c1C(=O)N(C(=O)/C=C/c1cccc(F)c1)C2=O               0

###

Target: C-X-C chemokine receptor type 6 (Homo sapiens) (UniProt O00574)
Assay: potency against CXCR6 with APJ panel – cell-based, beta-arrestin, DiscoveRx, uHTS hits, dose response (AID 624129)
Conditions: CXCR6 beta-arrestin (DiscoveRx) antagonist cell assay, CXCR6, run 2, dose range 1, at 79 µM (top of the series)
Here, each record is paired with measured inhibition data.
result type: inhibition (%)

> print(dat)
                                    compound  quantitative.readout
 1  CCCSc1cc(NCCOC(=O)CCC)c([N+](=O)[O-])c2nonc12                   112
 2  CCc1nc2c(OCCC3CCCCC3)cccn2c1N(C)C(=O)c1ccc(C)cc1                   111
 3  O=C(Nc1ccc(Oc2ccccc2)cc1)c1csc([C@@H]2O[C@H](CO)[C@H](O)[C@H](O)[C@H]2O)n1                  57.4
 4  Cc1cccc(CS(=O)(=O)c2ncc(Cl)c(C(=O)NCc3ccc4c(c3)OCO4)n2)c1                   109
 5  O=C(COC(=O)C1CCN(S(=O)(=O)c2cccs2)CC1)c1cc2ccccc2o1                  27.4
 6        CCCCC(=O)NC(=S)NNC(=O)c1ccc(OC)cc1                    98
 7  COc1ccc(/C=C(/C(=O)c2cccs2)N2C=CC=CC2=C(C#N)C#N)cc1                   109
 8  COC(=O)CSc1[nH]c2ccc(Br)cc2c1[N+](=O)[O-]                  23.1
 9  CCCc1cc(=O)oc2cc(OC(=O)CN3C(=O)NC4(CCCC4)C3=O)ccc12                  61.7
10  CCOC(=O)c1c(-c2ccc(C)o2)csc1NC(=S)NC(=O)N(C)C                  99.3
11  CCOC(=O)c1ccc(NC(=O)c2nc(S(=O)(=O)Cc3ccccc3)ncc2Cl)cc1                   111
12    COC(=O)c1cc(CSc2nc3ccc(C)cc3[nH]2)oc1C                  66.8
13  O=[N+]([O-])c1cc(-c2ncccn2)c([N+](=O)[O-])s1                   111
14  Cc1ccc(NC(=O)c2nc(S(=O)(=O)Cc3ccccc3)ncc2Cl)cc1                   111
15  COc1ccc(-c2c(C(=O)c3ccccc3)[nH]c(N)c2C(=O)c2ccc(Br)cc2)cc1OC                  86.6
16  O=[N+]([O-])c1ccc(N/N=C/c2sc(N3CCOCC3)nc2-c2ccccc2)c(S(=O)(=O)Nc2ccc(Cl)cc2)c1                  99.6
17  COc1cc(/C=C(\C#N)c2nc(-c3cc4ccccc4oc3=O)cs2)ccc1O                  84.1
18  CCOC(=O)c1cc([N+](=O)[O-])c([N+](=O)[O-])cc1NC(C)=O                   110
19  Nc1nc(N)c2c(ccc3c2ccn3Cc2cccc([N+](=O)[O-])c2)n1                   110
20  CC[N+]1(C)CCC(O)(/C=C/c2ccccc2)C(C(=O)/C=C/c2ccccc2)C1 (stereo unspecified)                   112
21      COc1ccc(C(=O)/C=C/Sc2nc3ccccc3o2)cc1                  61.3

###

Target: C-X-C chemokine receptor type 6 (Homo sapiens) (UniProt O00574)
Test: potency against CXCR6 with APJ panel – cell-based, beta-arrestin, DiscoveRx, uHTS hits, dose response (AID 624129)
Conditions: CXCR6 beta-arrestin (DiscoveRx) antagonist cell assay, CXCR6, run 2, dose range 2
pIC50: −log10 of the molar value.
result type: pIC50

> print(dat)
                              line.notation                             tested.target  quantitative.readout
1  Cc1ccccc1CS(=O)(=O)c1nnc([C@H](Cc2ccccc2)NC(=O)OC(C)(C)C)o1  C-X-C chemokine receptor type 6 (Homo sapiens) (UniProt O00574)                  4.80
2                  CCOC(=O)CSc1cccc2cccnc12  C-X-C chemokine receptor type 6 (Homo sapiens) (UniProt O00574)                  5.37
3  Cc1ccc(OCCN2C(=O)c3ccccc3C2=O)c([N+](=O)[O-])c1  C-X-C chemokine receptor type 6 (Homo sapiens) (UniProt O00574)                  5.40
4  O=[N+]([O-])c1cc2oc3c(c2c(C=NCc2ccccc2)c1O)CCCC3  C-X-C chemokine receptor type 6 (Homo sapiens) (UniProt O00574)                  5.19
5                 O=C(C=Cc1ccccn1)c1ccccc1O  C-X-C chemokine receptor type 6 (Homo sapiens) (UniProt O00574)                  4.51
6  C/C(=N\NC(=O)C(c1ccccc1)c1ccccc1)c1ccccn1  C-X-C chemokine receptor type 6 (Homo sapiens) (UniProt O00574)                  5.61

###

Molecular target: Apelin receptor (Homo sapiens) (UniProt P35414)
Assay: potency against CXCR6 with APJ panel – cell-based, beta-arrestin, DiscoveRx, uHTS hits, dose response (AID 624129)
Conditions: CXCR6 beta-arrestin (DiscoveRx) antagonist cell assay, APJ, dose range 1, mean IC50 across replicates
result type: IC50 (µM)

> print(dat)
                                    compound  units  value.qualifier  quantitative.readout
 1  COc1ccc(NC(=O)/C(Cl)=C(/Cl)S(=O)Cc2ccc(Cl)cc2)cn1 (configuration not stated)     µM                >                    80
 2  C=C1C(=O)C23C(O)C1CCC2C12CCCC(C)(COC(C)=O)C1C(O)C3(O)OC2 (configuration not stated)     µM                =                  8.77
 3                CN(C)C(=O)CSc1cccc2cccnc12     µM                >                    80
 4  CS(=O)(=O)c1ncc(Cl)c(C(=O)Nc2ccc3ccccc3c2)n1     µM                =                  60.7
 5  O=C1C(Cc2ccccc2)Nc2ncnc(N3CCN(c4ccccc4)CC3)c2N1Cc1ccc(Cl)cc1 (configuration not stated)     µM                =                  20.2
 6  CCOC(=O)c1c(SCCN2CCCC2)n(-c2ccccc2)c(=S)n(-c2ccccc2)c1=O     µM                >                    80
 7  Cc1ccc(C(C[N+](=O)[O-])Sc2ccc(N)cc2)cc1 (configuration not stated)     µM                =                  19.1
 8          CCOc1ccc2nc(NC(=O)c3ccccn3)sc2c1     µM                =                  19.5
 9  COc1ccc(/C=C/c2ccc3cccc(O)c3n2)c(OC)c1OC     µM                =                  6.97
10    CCn1c(=O)c([N+](=O)[O-])c(Cl)c2ccccc21     µM                =                  35.8
11                    Cc1cc(C)c2ccc(N)nc2c1O     µM                >                    80
12  N#CC(C#N)=C1C=CC=CN1/C(=C\c1ccco1)C(=O)c1ccccc1     µM                =                   3.9
13  Cc1[nH]n(-c2ccccc2)c(=S)c1C=NCCCN=Cc1c(C)[nH]n(-c2ccccc2)c1=S     µM                =                  3.07
14  O=C(CN1CCN(S(=O)(=O)c2ccc(Br)cc2)CC1)Nc1ccc2c(c1)OCO2     µM                =                  24.8
15  C/C(=N\NC(=O)COc1ccccc1-c1ccccc1)c1ccccn1     µM                =                  2.46
16  O=C1C(Cc2ccccc2)Nc2ncnc(N3CCN(c4ccccc4)CC3)c2N1Cc1ccc(Br)cc1 (configuration not stated)     µM                =                  2.26
17  Cc1ccc2c(c1)C1CN(C)CCC1N2C(=S)NC(=O)c1ccc(Br)cc1 (configuration not stated)     µM                =                    12
18         CCc1cc2c(=O)[nH]c(-c3ccccn3)nc2s1     µM                =                  2.03
19       O=C(CSc1cccc2cccnc12)N/N=C/c1cccnc1     µM                =                  4.26
20  O=C1CN(C(=O)CSc2nc3cc(Cl)ccc3c(=O)n2Cc2ccccc2)c2ccccc2N1     µM                >                    80
21                     Cc1ccc2c(C)ccc(O)c2n1     µM                =                  5.92
22  O=C(CSc1nc(-c2ccco2)cc(C(F)(F)F)n1)NCCCn1ccnc1     µM                =                  21.4
